Hello, the source for this data is paper PMC2740628, in case you need it.

System: Rabbit red blood cells
Assay: Haemolytic activity test
Type: cell-based
Details: read-out: Haemolytic activity EC50 without serum; rabbit red blood cells 2% in PBS, 2 h, 37 °C, without serum
pEC50: −log10 of the molar value.
Below, each entry is listed alongside its reported pEC50.
outcome.measure: pEC50

compound="CCCCCCCCCCCCCCCCCCCO[C@H]1O[C@H](CO)[C@@H](O)[C@H](O)[C@H]1O [α-13g, nonadecyl α-D-glucopyranoside]" measured_on="Rabbit red blood cells" outcome_measure=pEC50 result="< 2.48"
compound="CCCCCCCCCCCCCCCCCO[C@H]1O[C@H](CO)[C@@H](O)[C@H](O)[C@H]1O [α-13e]" measured_on="Rabbit red blood cells" outcome_measure=pEC50 result="< 2.48"
compound="CCCCCCCCS[C@@H]1O[C@H](CO)[C@@H](O)[C@H](O)[C@H]1O [OTG, Octylthioglucoside, reference compound]" measured_on="Rabbit red blood cells" outcome_measure=pEC50 result=3.30
compound="CCCCCCCCCCCCCCCCO[C@@H]1O[C@H](CO)[C@H](O)[C@H](O)[C@H]1O [β-15b, hexadecyl β-D-galactopyranoside]" measured_on="Rabbit red blood cells" outcome_measure=pEC50 result="< 2.48"
compound="CCCCCCCO[C@@H]1O[C@H](CO)[C@@H](O)[C@H](O)[C@H]1O [β-13a, Heptyl-β-D-glucopyranoside]" measured_on="Rabbit red blood cells" outcome_measure=pEC50 result="< 2.48"

---

Test system: B16F10 mouse melanoma cell line
Experiment: MTT-based cytotoxicity test
Format: cell-based
Details: read-out: Cytotoxicity EC50; B16F10, 24 h exposure, MTT, range 1 μM to 250 μM
outcome.measure: EC50 (µM)

molecule="CCCCCCCCCCCCCCCCCCCO[C@H]1O[C@H](CO)[C@@H](O)[C@H](O)[C@H]1O [α-13g, nonadecyl α-D-glucopyranoside]" outcome_measure=EC50 result_operator=> readout_number=250
molecule="CCCCCCCCCCCCCCCCO[C@@H]1O[C@H](CO)[C@@H](O[C@H]2O[C@H](CO)[C@@H](O)[C@H](O)[C@H]2O)[C@H](O)[C@H]1O [β-17b]" outcome_measure=EC50 result_operator== readout_number=67
molecule="CCCCCCCO[C@@H]1O[C@H](CO)[C@@H](O)[C@H](O)[C@H]1O [β-13a, Heptyl-β-D-glucopyranoside]" outcome_measure=EC50 result_operator=> readout_number=250
molecule="CCCCCCCCCCCCCCCCCO[C@H]1O[C@H](CO)[C@@H](O)[C@H](O)[C@H]1O [α-13e]" outcome_measure=EC50 result_operator== readout_number=37
molecule="CCCCCCCCCCCCCCCCO[C@@H]1O[C@H](CO)[C@H](O)[C@H](O)[C@H]1O [β-15b, hexadecyl β-D-galactopyranoside]" outcome_measure=EC50 result_operator=> readout_number=250
molecule="CCCCCCCCCCCCCCO[C@H]1O[C@H](CO)[C@@H](O)[C@H](O)[C@H]1O [α-13b]" outcome_measure=EC50 result_operator== readout_number=53
molecule="CCCCCCCO[C@@H]1O[C@H](CO)[C@H](O)[C@H](O)[C@H]1O [β-15a]" outcome_measure=EC50 result_operator=> readout_number=250
molecule="CCCCCCCCS[C@@H]1O[C@H](CO)[C@@H](O)[C@H](O)[C@H]1O [OTG, Octylthioglucoside, reference compound]" outcome_measure=EC50 result_operator=> readout_number=250
molecule="CCCCCCCCCCCCCCCCO[C@H]1O[C@H](CO)[C@@H](O)[C@H](O)[C@H]1O [α-13d]" outcome_measure=EC50 result_operator== readout_number=70

---

Below, each entry is listed alongside its reported pEC50.
Test system: Rabbit red blood cells
Test: Haemolytic activity test
Type: cell-based
Details: read-out: Haemolytic activity EC50 20 % serum; rabbit red blood cells, PBS containing 20% fetal bovine serum, 2 h, 37 °C
pEC50: −log10 of the molar value.
outcome.measure: pEC50

compound="CCCCCCCCCCCCCCCCO[C@@H]1O[C@H](CO)[C@H](O)[C@H](O)[C@H]1O [β-15b, hexadecyl β-D-galactopyranoside]" measured_on="Rabbit red blood cells" result="< 2.48"
compound="CCCCCCCO[C@@H]1O[C@H](CO)[C@@H](O)[C@H](O)[C@H]1O [β-13a, Heptyl-β-D-glucopyranoside]" measured_on="Rabbit red blood cells" result="< 2.48"
compound="CCCCCCCCS[C@@H]1O[C@H](CO)[C@@H](O)[C@H](O)[C@H]1O [OTG, Octylthioglucoside, reference compound]" measured_on="Rabbit red blood cells" result=2.52
compound="CCCCCCCCCCCCCCCCCCCO[C@H]1O[C@H](CO)[C@@H](O)[C@H](O)[C@H]1O [α-13g, nonadecyl α-D-glucopyranoside]" measured_on="Rabbit red blood cells" result="< 2.48"
compound="CCCCCCCCCCCCCCCCO[C@@H]1O[C@H](CO)[C@@H](O[C@H]2O[C@H](CO)[C@@H](O)[C@H](O)[C@H]2O)[C@H](O)[C@H]1O [β-17b]" measured_on="Rabbit red blood cells" result=3.82
compound="CCCCCCCCCCCCCCO[C@H]1O[C@H](CO)[C@@H](O)[C@H](O)[C@H]1O [α-13b]" measured_on="Rabbit red blood cells" result="< 2.48"
compound="CCCCCCCCCCCCCCCCO[C@H]1O[C@H](CO)[C@@H](O)[C@H](O)[C@H]1O [α-13d]" measured_on="Rabbit red blood cells" result="< 2.48"
compound="CCCCCCCCCCCCCCCCCO[C@H]1O[C@H](CO)[C@@H](O)[C@H](O)[C@H]1O [α-13e]" measured_on="Rabbit red blood cells" result="< 2.48"
compound="CCCCCCCO[C@@H]1O[C@H](CO)[C@H](O)[C@H](O)[C@H]1O [β-15a]" measured_on="Rabbit red blood cells" result="< 2.48"

---

System: Rabbit red blood cells
Assay: Haemolytic activity test
Assay type: cell-based
Conditions: read-out: Haemolytic activity EC50 without serum; rabbit red blood cells 2% in PBS, 2 h, 37 °C, without serum
pEC50: −log10 of the molar value.
outcome.measure: pEC50

compound="CCCCCCCCCCCCCCCCO[C@H]1O[C@H](CO)[C@@H](O)[C@H](O)[C@H]1O [α-13d]" outcome_measure=pEC50 result_operator=< readout_number=2.48
compound="CCCCCCCO[C@@H]1O[C@H](CO)[C@H](O)[C@H](O)[C@H]1O [β-15a]" outcome_measure=pEC50 result_operator=< readout_number=2.48
compound="CCCCCCCCCCCCCCCCO[C@@H]1O[C@H](CO)[C@@H](O[C@H]2O[C@H](CO)[C@@H](O)[C@H](O)[C@H]2O)[C@H](O)[C@H]1O [β-17b]" outcome_measure=pEC50 result_operator== readout_number=4.52
compound="CCCCCCCCCCCCCCO[C@H]1O[C@H](CO)[C@@H](O)[C@H](O)[C@H]1O [α-13b]" outcome_measure=pEC50 result_operator== readout_number=2.60
